variants and their reported protein stability index
B1: ZNF263 (parent)
chain: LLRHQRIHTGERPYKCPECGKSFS

- Variants of: B1
- experimentDescription: protein stability index of a GFP-peptide fusion (GPS, HEK-293T) (PSI 1-6); higher = more stable;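 note: lentivirally expressed fusions sorted by FACS into six bins by GFP to DsRed ratio, PSI derived from sequencing read proportions per bin multiplied by bin number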
- condition: c terminus: a fixed tail appended
quantityMeasured: protein stability index

>>> readoutvalue("R12L")
2.69
>>> readoutvalue("L2A")
1.96
>>> readoutvalue("S22M")
2.05
